- STUDY_SYSTEM: MERTK (UniProt Q12866)
- Sequence (Q12866 whole entry, looked up): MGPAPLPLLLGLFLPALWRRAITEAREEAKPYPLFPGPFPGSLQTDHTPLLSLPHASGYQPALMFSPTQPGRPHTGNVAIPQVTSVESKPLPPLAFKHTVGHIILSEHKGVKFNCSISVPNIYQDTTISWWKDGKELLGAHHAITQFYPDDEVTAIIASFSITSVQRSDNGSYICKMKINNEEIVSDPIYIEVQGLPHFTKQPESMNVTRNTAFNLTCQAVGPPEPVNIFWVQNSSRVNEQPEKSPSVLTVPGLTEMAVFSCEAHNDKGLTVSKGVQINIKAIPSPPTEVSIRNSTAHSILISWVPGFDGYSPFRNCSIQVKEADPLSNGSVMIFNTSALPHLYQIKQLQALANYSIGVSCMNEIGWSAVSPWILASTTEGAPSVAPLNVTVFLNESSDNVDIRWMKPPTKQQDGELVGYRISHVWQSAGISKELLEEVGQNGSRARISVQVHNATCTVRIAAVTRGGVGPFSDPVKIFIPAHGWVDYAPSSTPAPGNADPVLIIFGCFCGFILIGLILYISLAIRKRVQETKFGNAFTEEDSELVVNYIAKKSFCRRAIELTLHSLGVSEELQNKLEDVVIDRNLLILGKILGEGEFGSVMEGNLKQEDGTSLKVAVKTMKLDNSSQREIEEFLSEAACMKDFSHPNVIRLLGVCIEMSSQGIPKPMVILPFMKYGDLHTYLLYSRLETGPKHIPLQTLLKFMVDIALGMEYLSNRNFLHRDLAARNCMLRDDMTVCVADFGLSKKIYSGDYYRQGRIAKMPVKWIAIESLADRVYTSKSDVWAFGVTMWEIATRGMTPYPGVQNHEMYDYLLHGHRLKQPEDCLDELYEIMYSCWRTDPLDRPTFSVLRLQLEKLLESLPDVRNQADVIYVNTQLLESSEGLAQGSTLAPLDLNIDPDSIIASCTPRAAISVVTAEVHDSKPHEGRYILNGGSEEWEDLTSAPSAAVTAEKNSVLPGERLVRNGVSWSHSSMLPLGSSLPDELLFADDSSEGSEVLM
- TEST: phosphorylation enrichment, bacterial display (enrichment ratio); higher = better substrate or ligand; peptides without Tyr show the background;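 note: 11-residue human phosphosite peptides and single-mutation variants displayed on the E. coli surface, counted by deep sequencing, each peptide's frequency after selection divided by its frequency in the unselected input library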;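 note: frequency after pTyr selection over input frequency; kinase dosed for 20-30% of maximal phosphorylation in three min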
PARAMETER: phosphorylation enrichment

Below, 2 sequences whose answers are already recorded.
- CHAIN_SEQUENCE: "GLGGVYGGASG [KRT8_Y54_G53V]"
  EXPERIMENTAL_RESULT: 0.445
- CHAIN_SEQUENCE: "PVADPYDQSFE [MAPK14_Y323]"
  EXPERIMENTAL_RESULT: 0.894

Query sequence follows.
Q. Return reported phosphorylation enrichment; argument: IDFARYWHGND [MMP11_Y162_D166N]
A. 0.372

* * *

- STUDY_SYSTEM: FGFR3 (UniProt P22607)
- Sequence (P22607 whole entry, looked up): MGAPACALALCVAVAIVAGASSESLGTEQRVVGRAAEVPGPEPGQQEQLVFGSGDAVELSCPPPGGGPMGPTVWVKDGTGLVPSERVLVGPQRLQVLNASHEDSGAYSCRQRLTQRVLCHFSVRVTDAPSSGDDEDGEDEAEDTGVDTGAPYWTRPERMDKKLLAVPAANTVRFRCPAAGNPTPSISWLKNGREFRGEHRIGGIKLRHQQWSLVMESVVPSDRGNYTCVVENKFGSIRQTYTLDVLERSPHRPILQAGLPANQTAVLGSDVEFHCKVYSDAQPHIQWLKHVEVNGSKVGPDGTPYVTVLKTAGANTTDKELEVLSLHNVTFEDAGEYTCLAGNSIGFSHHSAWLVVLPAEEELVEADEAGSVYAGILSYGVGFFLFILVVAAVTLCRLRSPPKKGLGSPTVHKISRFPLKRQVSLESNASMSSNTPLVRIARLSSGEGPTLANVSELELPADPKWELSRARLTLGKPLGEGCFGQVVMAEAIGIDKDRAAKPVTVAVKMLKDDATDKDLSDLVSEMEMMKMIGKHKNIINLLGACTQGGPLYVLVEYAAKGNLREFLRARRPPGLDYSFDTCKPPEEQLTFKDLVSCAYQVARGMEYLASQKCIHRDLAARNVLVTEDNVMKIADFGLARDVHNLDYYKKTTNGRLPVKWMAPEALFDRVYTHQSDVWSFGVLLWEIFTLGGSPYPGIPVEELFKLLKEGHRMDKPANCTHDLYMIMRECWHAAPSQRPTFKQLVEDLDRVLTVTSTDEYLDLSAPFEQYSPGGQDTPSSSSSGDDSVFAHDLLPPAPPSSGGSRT
- TEST: phosphorylation enrichment, bacterial display (enrichment ratio); higher = better substrate or ligand; peptides without Tyr show the background
# label = bin(measured phosphorylation enrichment), where bins are low bracket = under 0.6, middle bracket = from 0.6 up to 0.9, high bracket = 0.9 and over

- CHAIN_SEQUENCE: "LRYDSYSSYCN [SLC20A2_Y433]"
  LABEL_VALUE: "middle bracket"

Q. Hello team, could you let me know which band the following sequence falls into: SRNSKYNAEST [PSEN1_Y315_K311R]
A. low bracket

Q. Bin this entry: VQVAFYTVMMN [SPATA17_Y84_M86V_YF]
A. high bracket

Q. Band for KLRMESLSLMH [NCKIPSD_Y660_Y660S] ?
A. low bracket

* * *

- Tested on: c-Src
- TEST: phosphorylation enrichment, bacterial display (enrichment ratio); higher = better substrate or ligand; peptides without Tyr show the background
PARAMETER: phosphorylation enrichment

- CHAIN_SEQUENCE: "GEFFRYLAEVA [YWHAG_Y133_D129E_YF]"
  STUDY_SYSTEM: "c-Src"
  PARAMETER: "phosphorylation enrichment"
  EXPERIMENTAL_RESULT: 0.442
- CHAIN_SEQUENCE: "ALEHKYWALGQ [MAP1A_Y1555_Q1553H]"
  STUDY_SYSTEM: "c-Src"
  PARAMETER: "phosphorylation enrichment"
  EXPERIMENTAL_RESULT: 1.39
- CHAIN_SEQUENCE: "FQNSLYAPDFS [FAM92A_Y226_R222Q_YF]"
  STUDY_SYSTEM: "c-Src"
  PARAMETER: "phosphorylation enrichment"
  EXPERIMENTAL_RESULT: 2.18
- CHAIN_SEQUENCE: "LVSCTYQLARG [FGFR2_Y608]"
  STUDY_SYSTEM: "c-Src"
  PARAMETER: "phosphorylation enrichment"
  EXPERIMENTAL_RESULT: 0.783
- CHAIN_SEQUENCE: "ARGMEYLASKK [FGFR1_Y613]"
  STUDY_SYSTEM: "c-Src"
  PARAMETER: "phosphorylation enrichment"
  EXPERIMENTAL_RESULT: 0.403
- CHAIN_SEQUENCE: "WVFNHYRWIIW [BRCA2_Y2624_YF]"
  STUDY_SYSTEM: "c-Src"
  PARAMETER: "phosphorylation enrichment"
  EXPERIMENTAL_RESULT: 0.432

Q. Recorded phosphorylation enrichment of AVLVQYYMEHH [PTPN11_Y80_E76V] , please.
A. 0.596

Q. Record request: phosphorylation enrichment value, item GYYDLYGGEKF [PTPN11_Y66_D61G]
A. 4.54

Q. Looking for the measured phosphorylation enrichment of QLFGPYLRIHA [BSCL2_Y213_A212P_YF] , can you help?
A. 0.785

Q. What does the record list as phosphorylation enrichment for SRGHQYQELPR [KCNH2_Y1009_R1007H] ?
A. 0.35

Q. So what does the record say about phosphorylation enrichment for LAIELYVVVCK [RHO_Y136_R135L] ?
A. 1.11

Q. Suppose we examine the sequence RLLRGYDQLAF [HLA-C_Y137_S140L_YF] ; what phosphorylation enrichment value has been reported?
A. 0.62

Q. Entry under review: EHIEFYELDKK [PMM2_Y145_R141H] . Reported phosphorylation enrichment?
A. 1.11
